- SYSTEM TESTED: TYK2 JH1 catalytic (human)
- PROCEDURE DETAILS: KINOMEscan competition binding
- TEST CONTEXT: compound 10.0 µM
MEASUREMENT LABEL: kinase still bound, per cent of control (%)
One number for each entry, in %.

CCCS(=O)(=O)Nc1ccc(F)c(C(=O)c2c[nH]c3ncc(-c4ccc(Cl)cc4)cc23)c1F = 47
Cc1cc([C@@H](C)Nc2ccccc2C(=O)O)c2nc(N3CCOCC3)cc(=O)n2c1 = 82
OCCCNc1cc(-c2ccnc(Nc3cccc(Cl)c3)n2)ccn1 = 100

Below is a list of compounds. For each, state its recorded kinase still bound, per cent of control.
1. Cn1c(=O)n(-c2ccc(C(C)(C)C#N)cc2)c2c3cc(-c4cnc5ccccc5c4)ccc3ncc21
2. CC[C@@H]1C(=O)N(C)c2cnc(Nc3ccc(C(=O)NC4CCN(C)CC4)cc3OC)nc2N1C1CCCC1
3. CCOc1cc2ncc(C#N)c(Nc3ccc(OCc4ccccn4)c(Cl)c3)c2cc1NC(=O)/C=C/CN(C)C
4. Cc1ccc(C(=O)Nc2cccc(C(F)(F)F)c2)cc1Nc1cncc(C(N)=O)c1
5. C=CC(=O)Nc1cccc(Oc2nc(Nc3ccc(N4CCN(C)CC4)cc3OC)ncc2Cl)c1
6. COc1cc(C(=O)NC2CCN(C)CC2)ccc1Nc1ncc2c(n1)N(C1CCCC1)C(C)CC(=O)N2C (stereo not drawn)

Given back:
1. 100
2. 100
3. 100
4. 100
5. 100
6. 100

Below is a list of compounds. For each, state its recorded kinase still bound, per cent of control.
1. C=CC(=O)Nc1cccc(Nc2nc(N[C@H]3CC[C@H](N(C)C)CC3)nc3c2ncn3C(C)C)c1
2. O=C(NC1CC1)c1cccc(-c2ccc3c(NC(=O)C4CC4)n[nH]c3c2)c1
3. N#Cc1c(NC(=O)c2cccc3ccccc23)sc2c1CCCC2
4. C[C@@H](Oc1cc(-n2cnc3ccc(CN4CCN(C)CC4)cc32)sc1C(N)=O)c1ccccc1C(F)(F)F
5. C=CC(=O)Nc1cc(NC(=O)c2ccc(C)c(NC(=O)c3ccno3)c2)cc(C(F)(F)F)c1
6. COc1cc(N2CCN(C)CC2)ccc1Nc1nc(N)c(C(=O)c2c(Cl)cccc2Cl)s1
7. COc1cc(C(=O)NC2CCN(C)CC2)ccc1Nc1ncc2c(n1)N(C1CCCC1)CCC(=O)N2C(C)C
8. O=C(O)c1ccc(Nc2ncc3c(n2)-c2ccc(Cl)cc2C(c2c(F)cccc2F)=NC3)cc1

Given back:
34
40
100
81
98
90
100
100

Asked: Request the reported kinase still bound, per cent of control associated with CCN1CCN(Cc2ccc(Nc3ncc4c(n3)N(C)c3ccccc3C(=O)N4C)cc2C(F)(F)F)CC1
Given back: 2
